# assay.notes: Acceleration effect of hydroxylamine upon release of antifoggant from precursor (HPLC, half-life)
# Format: physicochemical
# Parameters: key: ratio of half-life without hydroxylamine to half-life with it
# applied.conditions: pH 11.0, half-life hydroxylamine absent vs present
Measured Acceleration Effect accompanies every entry in the list below.
measured.metric: Acceleration Effect

compound="O=C1OC(Sc2nnnn2-c2ccccc2)c2ccccc21 (stereo not shown)" result=30
compound=O=C1c2ccc([N+](=O)[O-])cc2C(=O)N1CSc1nnnn1-c1ccccc1 result=3.0
compound=O=C1CCC(=O)N1CSc1nnnn1-c1ccccc1 result=2.5
compound="O=C1CC(Sc2nnnn2-c2ccccc2)C(=O)N1c1ccccc1 (stereo not shown) [Comparison Precursor (A-1), reference compound]" result=0.82
compound=O=C1c2ccccc2S(=O)(=O)N1CSc1nnnn1-c1ccccc1 result=16
compound=CN(C(=O)Sc1nnnn1-c1ccccc1)c1cccc2c1COC2=O result=27
compound="O=C1OC(Sc2nnnn2-c2ccccc2)(c2ccccc2)c2ccc([N+](=O)[O-])cc21 (stereo not shown)" result=25
compound="CC(CC#N)Sc1nnnn1-c1ccccc1 (stereo not shown) [Comparison Precursor (A-2), reference compound]" result=1.1
compound=CN1C(=O)c2cccc(N(C)C(=O)Sc3nnnn3-c3ccccc3)c2C1=O result=4.1
compound=CNC(=O)Nc1cccc(-n2nnnc2SCN2C(=O)c3ccccc3S2(=O)=O)c1 result=18

====

Measured t1/2 Hydroxylamine Present accompanies every entry in the list below.
# assay.notes: Acceleration effect of hydroxylamine upon release of antifoggant from precursor (HPLC, half-life)
# Type: physicochemical
# applied.conditions: release of antifoggant, pH 10.0, hydroxylamine present (3.8×10^-4 mole)
measured.metric: t1/2 Hydroxylamine Present (s)

compound="CNC(=O)Nc1cccc(-n2nnnc2SCN2C(=O)c3ccccc3S2(=O)=O)c1 [(I)-(16)]" result=120
compound="O=C1c2ccc([N+](=O)[O-])cc2C(=O)N1CSc1nnnn1-c1ccccc1 [(I)-(10)]" result=38
compound="O=C1OC(Sc2nnnn2-c2ccccc2)c2ccccc21 (stereo not shown) [(III)-(1)]" result=960
compound="CN1C(=O)c2cccc(N(C)C(=O)Sc3nnnn3-c3ccccc3)c2C1=O [(IV)-(2)]" result=700
compound="O=C1c2ccccc2S(=O)(=O)N1CSc1nnnn1-c1ccccc1 [(I)-(15)]" result=100
compound="O=C1OC(Sc2nnnn2-c2ccccc2)(c2ccccc2)c2ccc([N+](=O)[O-])cc21 (stereo not shown) [(III)-(14)]" result=340

====

# assay.notes: Acceleration effect of hydroxylamine upon release of antifoggant from precursor (HPLC, half-life)
# Type: physicochemical
# applied.conditions: release of antifoggant, pH 11.0, hydroxylamine present (3.8×10^-4 mole)
Measured t1/2 Hydroxylamine Present accompanies every entry in the list below.
measured.metric: t1/2 Hydroxylamine Present (s)

compound="O=C1CC(Sc2nnnn2-c2ccccc2)C(=O)N1c1ccccc1 (stereo not shown) [Comparison Precursor (A-1), reference compound]" result=380
compound=CN(C(=O)Sc1nnnn1-c1ccccc1)c1cccc2c1COC2=O result=230
compound=CN1C(=O)c2cccc(N(C)C(=O)Sc3nnnn3-c3ccccc3)c2C1=O result=100
compound="O=C1OC(Sc2nnnn2-c2ccccc2)c2ccccc21 (stereo not shown)" result=110
compound="O=C1OC(Sc2nnnn2-c2ccccc2)(c2ccccc2)c2ccc([N+](=O)[O-])cc21 (stereo not shown)" result=39
compound=O=C1c2ccc([N+](=O)[O-])cc2C(=O)N1CSc1nnnn1-c1ccccc1 result=12
compound=CNC(=O)Nc1cccc(-n2nnnc2SCN2C(=O)c3ccccc3S2(=O)=O)c1 result=27
compound=O=C1c2ccccc2S(=O)(=O)N1CSc1nnnn1-c1ccccc1 result=29
compound=O=C1CCC(=O)N1CSc1nnnn1-c1ccccc1 result=260

====

Measured t1/2 Hydroxylamine Absent accompanies every entry in the list below.
# assay.notes: Acceleration effect of hydroxylamine upon release of antifoggant from precursor (HPLC, half-life)
# Assay type: physicochemical
# applied.conditions: release of antifoggant, pH 10.0, hydroxylamine absent
measured.metric: t1/2 Hydroxylamine Absent

compound="CN(C(=O)Sc1nnnn1-c1ccccc1)c1cccc2c1COC2=O [(V)-(1)]" result="53,000 sec"
compound="CC(CC#N)Sc1nnnn1-c1ccccc1 (stereo not shown) [Comparison Precursor (A-2), reference compound]" result="25,000 sec"
compound="CNC(=O)Nc1cccc(-n2nnnc2SCN2C(=O)c3ccccc3S2(=O)=O)c1 [(I)-(16)]" result="4,100 sec"
compound="O=C1c2ccccc2S(=O)(=O)N1CSc1nnnn1-c1ccccc1 [(I)-(15)]" result="3,700 sec"
compound="O=C1CCC(=O)N1CSc1nnnn1-c1ccccc1 [(II)-(1)]" result="5,700 sec"
compound="O=C1CC(Sc2nnnn2-c2ccccc2)C(=O)N1c1ccccc1 (stereo not shown) [Comparison Precursor (A-1), reference compound]" result="2,600 sec"
compound="O=C1OC(Sc2nnnn2-c2ccccc2)c2ccccc21 (stereo not shown) [(III)-(1)]" result="27,000 sec"
compound="O=C1c2ccc([N+](=O)[O-])cc2C(=O)N1CSc1nnnn1-c1ccccc1 [(I)-(10)]" result="320 s"
compound="CN1C(=O)c2cccc(N(C)C(=O)Sc3nnnn3-c3ccccc3)c2C1=O [(IV)-(2)]" result="3,500 sec"
compound="O=C1OC(Sc2nnnn2-c2ccccc2)(c2ccccc2)c2ccc([N+](=O)[O-])cc21 (stereo not shown) [(III)-(14)]" result="9,000 sec"

====

# assay.notes: Acceleration effect of hydroxylamine upon release of pyrazolidones from precursors (half-life)
# Format: physicochemical
# applied.conditions: release of pyrazolidones, pH 10.0, hydroxylamine absent
measured.metric: t1/2 Hydroxylamine Absent

compound=O=C1c2ccccc2C(=O)N1COC1=NN(c2ccccc2)CC1 result="3,200 sec"
compound="O=C1OC(N2C(=O)CCN2c2ccccc2)c2ccc([N+](=O)[O-])cc21 (stereo not drawn)" result="13,000 sec"
compound=O=C1c2ccccc2C(=O)N1CN1C(=O)CCN1c1ccccc1 result="9,400 sec"
compound=O=C1CCN(c2ccccc2)N1CN1C(=O)c2ccccc2S1(=O)=O result="9,300 sec"
compound="CN1C(=O)c2cccc(N(C)C(=O)OC3=NN(c4ccccc4)CC3(C)CO)c2C1=O (stereo not drawn)" result="5,600 sec"
compound=CC1(C)CN(c2ccccc2)N(CN2C(=O)c3ccccc3S2(=O)=O)C1=O result="7,200 sec"

====

# assay.notes: Acceleration effect of hydroxylamine upon release of antifoggant from precursor (HPLC, half-life)
# Format: physicochemical
# applied.conditions: release of antifoggant, pH 11.0, hydroxylamine absent
measured.metric: t1/2 Hydroxylamine Absent (s)

molecule=CN1C(=O)c2cccc(N(C)C(=O)Sc3nnnn3-c3ccccc3)c2C1=O result=420
molecule=O=C1CCC(=O)N1CSc1nnnn1-c1ccccc1 result=650
molecule="O=C1CC(Sc2nnnn2-c2ccccc2)C(=O)N1c1ccccc1 (stereo not shown) [Comparison Precursor (A-1), reference compound]" result=310
molecule=O=C1c2ccccc2S(=O)(=O)N1CSc1nnnn1-c1ccccc1 result=470
molecule="O=C1OC(Sc2nnnn2-c2ccccc2)(c2ccccc2)c2ccc([N+](=O)[O-])cc21 (stereo not shown)" result=980
molecule=CNC(=O)Nc1cccc(-n2nnnc2SCN2C(=O)c3ccccc3S2(=O)=O)c1 result=490
molecule=O=C1c2ccc([N+](=O)[O-])cc2C(=O)N1CSc1nnnn1-c1ccccc1 result=37

====

# assay.notes: Acceleration effect of hydroxylamine upon release of antifoggant from precursor (HPLC, half-life)
# Assay type: physicochemical
# applied.conditions: release of antifoggant, pH 10.0, hydroxylamine present (3.8×10^-4 mole)
# Experimental: Measurement of Acceleration Effect of Hydroxylamine upon Release of Antifoggant from Precursor Thereof […] The acceleration effect of hydroxylamine was determined by comparison of the half-life value in the hydroxylamine present present case and that in the hydroxylamine-absent case and, further, compared with effects of known precursors of the kind which release antifoggants without ring-cleavage (Comparison Precursor (A-1) and Comparison Precursor (A-2)).
measured.metric: t1/2 Hydroxylamine Present

compound=O=C1CCC(=O)N1CSc1nnnn1-c1ccccc1 measured_metric="t1/2 Hydroxylamine Present" result="1,200 sec"
compound="CC(CC#N)Sc1nnnn1-c1ccccc1 (stereo not shown) [Comparison Precursor (A-2), reference compound]" measured_metric="t1/2 Hydroxylamine Present" result="23,000 sec"
compound=CN(C(=O)Sc1nnnn1-c1ccccc1)c1cccc2c1COC2=O measured_metric="t1/2 Hydroxylamine Present" result="2,100 sec"
compound="O=C1CC(Sc2nnnn2-c2ccccc2)C(=O)N1c1ccccc1 (stereo not shown) [Comparison Precursor (A-1), reference compound]" measured_metric="t1/2 Hydroxylamine Present" result="4,200 sec"

====

Measured t1/2 Hydroxylamine Absent accompanies every entry in the list below.
# assay.notes: Acceleration effect of hydroxylamine upon release of antifoggant from precursor (HPLC, half-life)
# Type: physicochemical
# applied.conditions: release of antifoggant, pH 11.0, hydroxylamine absent
measured.metric: t1/2 Hydroxylamine Absent

molecule="CC(CC#N)Sc1nnnn1-c1ccccc1 (stereo not drawn) [Comparison Precursor (A-2), reference compound]" result="2,900 sec"
molecule="O=C1OC(Sc2nnnn2-c2ccccc2)c2ccccc21 (stereo not drawn)" result="3,300 sec"
molecule=CN(C(=O)Sc1nnnn1-c1ccccc1)c1cccc2c1COC2=O result="6,200 sec"
